src = patent EP1200395B1

STUDY SYSTEM: CCR-3 (Homo sapiens)
Sequence (P51677 whole entry): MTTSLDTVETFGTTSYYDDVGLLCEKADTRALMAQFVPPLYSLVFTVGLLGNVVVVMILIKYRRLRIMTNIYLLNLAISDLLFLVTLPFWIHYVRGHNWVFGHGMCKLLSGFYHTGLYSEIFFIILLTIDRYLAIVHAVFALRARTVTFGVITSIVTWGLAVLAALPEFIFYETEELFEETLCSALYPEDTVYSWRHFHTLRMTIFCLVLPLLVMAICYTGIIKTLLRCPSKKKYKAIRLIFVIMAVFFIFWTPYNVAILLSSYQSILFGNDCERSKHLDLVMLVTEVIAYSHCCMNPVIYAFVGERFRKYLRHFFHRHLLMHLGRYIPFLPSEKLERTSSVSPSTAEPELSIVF
METHOD SUMMARY: Eotaxin-induced chemotaxis of CCR-3 transfectant cells (CCR3/U937)
Format: cell-based
Parameters: expressed in transfected cells; host or cells: U937
SETUP CONDITIONS: 6.25 µg/ml test compound; eotaxin 1 x 10^-9 M; CCR3/U937 cells (Table 3b)
READOUT TYPE: CCR-3 Transfectant Chemotaxis Assay 6.25 µg/ml (inhibition %)
Could you give me the number in %? Just the number is fine.

COc1ccc(CCN(CCCNC(=O)Nc2ccccc2-c2ccccc2)C[C@@H]2CCCN2)cc1OC :: 32
CC(C)CN(CCCNC(=O)Nc1ccc(Br)cc1)Cc1ccc2c(c1)OCO2 :: 54

**Query** Would you please give the reported CCR-3 Transfectant Chemotaxis Assay 6.25 µg/ml (inhibition %) of "O=C(NCCCN(CCc1ccc(Cl)c(Cl)c1)C[C@@H]1CCCN1)Nc1ccccc1-c1ccccc1" with CCR-3 (Homo sapiens)?
**Result** 82

**Query** Identify measured CCR-3 Transfectant Chemotaxis Assay 6.25 µg/ml (inhibition %) obtained with CCR-3 (Homo sapiens) for "Cc1cccc(NC(=O)NCCCN(Cc2ccc3c(c2)OCO3)CC(C)C)c1" .
**Result** 32

**Query** State CCR-3 Transfectant Chemotaxis Assay 6.25 µg/ml (inhibition %) on CCR-3 (Homo sapiens). Entry: CC(C)CN(CCCNC(=O)Nc1ccc(Br)cc1)C1CCCc2ccccc21 (centres unmarked)
**Result** 92

**Query** Find CCR-3 Transfectant Chemotaxis Assay 6.25 µg/ml (inhibition %) for "Cc1ccc(CCN(CCCNC(=O)Nc2ccccc2-c2ccccc2)CC(C)C)cc1" on CCR-3 (Homo sapiens) and write it down.
**Result** 44

**Query** Write CCR-3 Transfectant Chemotaxis Assay 6.25 µg/ml (inhibition %) of "O=C(NCCCN(Cc1ccc2c(c1)OCO2)C[C@@H]1CCCN1)Nc1ccc(Br)cc1" ; system used: CCR-3 (Homo sapiens)
**Result** 33

**Query** For CCR-3 (Homo sapiens), give CCR-3 Transfectant Chemotaxis Assay 6.25 µg/ml (inhibition %) of the listed compound: "CC(C)CCN(CCCNC(=O)Nc1ccc(Br)cc1)CCc1c[nH]cn1"
**Result** 65
